# System: Glutamate receptor ionotropic, NMDA 3A (GRIN3A) ligand-binding domain
# protocolDetails: binders of NR3A ligand-binding domain, primary screen, biophysical, differential scanning fluorimetry, uHTS (AID 1259313)
# measurementContext: NR3A LBD differential scanning fluorimetry, at 25 µM, 0% = protein alone, 100% = glycine-bound protein
The campaign covered roughly 340,000 compounds. About 8,500 (2.5%) were called active.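 Rule for the calls: active = melting temperature shift of at least 10% of the positive control shift, at one fixed dose; inactive = the rest.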 The entries come from a sample that favours actives as a whole.
Your answer must be one of the following: label 1 = active, label 0 = inactive

molecule	classification
N#Cc1ccccc1S(=O)(=O)N1CCN(Cc2c(O)ccc3ccccc23)CC1	label 0
CCn1c(O)c(N=NC(=O)c2cccc(S(=O)(=O)N3CCCCC3)c2)c2ccccc21	label 0
COc1ccc(CCNC(=O)COC(=O)Cc2cc(OC)c(OC)c(OC)c2)cc1	label 0
Cc1ccccc1NC(=O)c1ccc(COc2ccc3c(C)cc(=O)oc3c2)cc1	label 1

Record request — test call for "CCc1cccc(NC(=O)CCNS(=O)(=O)c2cccc3nonc23)c1"
label 0

Then "CCN1CCN(c2nc(Nc3cc(OC)ccc3OC)nc(Nc3cc(OC)ccc3OC)n2)CC1" ?
label 0

Field entry: "Cc1ccc(CNC(=O)CCNS(=O)(=O)c2cccc3nonc23)cc1"
label 1

Try this molecule next: "COc1cc(OC)c(C(=O)NNC(=O)c2ccc(NS(=O)(=O)c3cccs3)cc2)cc1OC"
label 0

// same read-out, input: CCN(C(=O)COC(=O)c1ccc(COc2ccc3c(C)cc(=O)oc3c2)cc1)C1CCS(=O)(=O)C1 (stereo not given)
label 0

Okay, and "CCOC(=O)c1nnn(CC(=O)Nc2cccc(F)c2)c1C(=O)OCC" ?
label 0

---

# Test system: Glutamate receptor ionotropic, NMDA 3A (GRIN3A) ligand-binding domain
# protocolDetails: binders of NR3A ligand-binding domain, primary screen, biophysical, differential scanning fluorimetry, uHTS (AID 1259313)
# measurementContext: NR3A LBD differential scanning fluorimetry, at 25 µM, 0% = protein alone, 100% = glycine-bound protein
Screen size: about 340,000 compounds; about 8,500 (2.5%) were called active.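 How the source made its calls: active means melting temperature shift of at least 10% of the positive control shift, at one fixed dose; inactive means the rest.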 The full list was thinned out, with actives kept by preference.
Pick one and only one: 1.0 for active, 0.0 for inactive

Past entries and their recorded results:
compound	classification
CC1Cc2ccccc2N1CC(=O)Nc1ccc(S(N)(=O)=O)cc1 (stereo unspecified)	0.0
CCCN1C(=O)C(NS(=O)(=O)c2ccc(N)cc2)(C(F)(F)F)C(C(=O)OC)=C1C (stereo unspecified)	1.0
COc1cc(OC)cc(C(=O)N[C@H](C(=O)Nc2nc3ccccc3[nH]2)C(C)C)c1	0.0
Cc1onc(-c2c(F)cccc2Cl)c1C(=O)Nc1cccc(S(=O)(=O)N2CCCCC2)c1	0.0
O=C1c2ccccc2C(=O)N1CCC#Cc1ccc2cc(C3(O)CCCCC3)oc(=O)c2c1	1.0

Per the assay record, what outcome was assigned to CCCCOP(=O)(c1ccc(N(C)C)cc1)C(O)c1cc(OC)ccc1OC (stereo unspecified) ?
0.0

Same again, this time with O=C(NN1C(=O)C2C3C=CC(O3)C2C1=O)c1ccncc1 (stereo unspecified)
0.0

Record: CC1CC(C)CN(CC(=O)Nc2ccc(S(N)(=O)=O)cc2)C1 (stereo unspecified)
1.0

Note, next up: "O=S(=O)(Nc1ccccc1Cl)c1cccc2nsnc12"
0.0

Thanks! And COc1ccc(C(c2nnnn2Cc2cccs2)N2CCN(c3ccccc3)CC2)cc1OC (stereo unspecified) ?
0.0

Check N/C(=N\c1nc2ccccc2o1)NC(=O)C(Cc1ccccc1)N1C(=O)c2ccccc2C1=O (stereo unspecified) too.
0.0

Repeat with "Cc1cccc(NC(=O)NC(=S)NC(=O)c2ccccc2)c1"
1.0

Would you kindly repeat that for O=C1CSC(c2cccc(F)c2)N1c1ccc(O)cc1 (stereo unspecified) ?
0.0

Moving on to "COc1ccc(C)cc1S(=O)(=O)Nc1cccc(Cl)c1Cl"
0.0

And then "CCOc1ccc(NC(=O)CCCCCN2C(=O)[C@@H]3Cc4ccccc4CN3C2=O)cc1" , what is it?
0.0

Can you check Cc1ccc(S(=O)(=O)NC2(C(F)(F)F)NC(=O)N(CCc3ccccc3)C2=O)cc1 (stereo unspecified) next?
0.0

---

Tm shift relative to glycine control values, listed per item
# Test system: Glutamate receptor ionotropic, NMDA 3A (GRIN3A) ligand-binding domain
# protocolDetails: binders of NR3A ligand-binding domain, primary screen, biophysical, differential scanning fluorimetry, uHTS (AID 1259313)
# measurementContext: NR3A LBD differential scanning fluorimetry, at 25 µM, stronger effect = higher value, 0% = protein alone, 100% = glycine-bound protein
The campaign covered roughly 340,000 compounds. About 8,500 (2.5%) were called active. The sample as a whole holds a higher share of actives than the screen did.
Return type: number; implicit unit %.

Consider the worked cases shown below.
compound	systemName	propertyLabel	readoutValue
CCN(CC)C(=O)Oc1ccc(OC(=O)N(CC)CC)cc1	Glutamate receptor ionotropic, NMDA 3A (GRIN3A) ligand-binding domain	Tm shift relative to glycine control	-0.08
O=C(COC(=O)c1ccc(F)cc1)NCC1COc2ccccc2O1 (centres undefined)	Glutamate receptor ionotropic, NMDA 3A (GRIN3A) ligand-binding domain	Tm shift relative to glycine control	0.36

What does the record list as Tm shift relative to glycine control for COC(=O)C(C)Oc1ccc2c(-c3cccc([N+](=O)[O-])c3)cc(=O)oc2c1 (centres undefined) ?
0.72

And then "Oc1ccccc1-c1cc(-c2ccc(Cl)cc2)n[nH]1" , what is it?
31

Then CC(C)N1CCC(N2CCN(Cc3cccnc3)CC2CCO)CC1 (centres undefined) ?
-1.29

---

# Test system: Glutamate receptor ionotropic, NMDA 3A (GRIN3A) ligand-binding domain
# protocolDetails: binders of NR3A ligand-binding domain, primary screen, biophysical, differential scanning fluorimetry, uHTS (AID 1259313)
# measurementContext: NR3A LBD differential scanning fluorimetry, at 25 µM, stronger effect = higher value, 0% = protein alone, 100% = glycine-bound protein
Out of some 340,000 compounds screened, about 8,500 (2.5%) were called active. For the sample, actives were picked, then their nearest neighbours and some compounds at random.
propertyLabel: Tm shift relative to glycine control (%)
Just the number please, in %, no unit attached.

Known results for molecules:
molecule	Tm shift relative to glycine control, %
Nc1nonc1-n1nnc(C(=O)N/N=C\c2ccncc2)c1CN1CCCCC1	0.45
Cc1ccc(SCc2c(C(=O)N/N=C/c3cccnc3)nnn2-c2nonc2N)cc1	30.3
O=C(CCC(=O)NNc1nc2ccccc2c2nc(-c3ccccc3)nn12)NCCCN1CCCC1=O	0.34

Look up Tm shift relative to glycine control: Cc1ccc(SCc2c(C(=O)N/N=C/C3CC=CCC3)nnn2-c2nonc2N)cc1 (stereo not given)
85.4

Field entry: "COCc1c(C(=O)N/N=C\c2cccnc2)nnn1-c1nonc1N"
-1.82

---

# key: entry, value: Tm shift relative to glycine control
# System: Glutamate receptor ionotropic, NMDA 3A (GRIN3A) ligand-binding domain
# protocolDetails: binders of NR3A ligand-binding domain, primary screen, biophysical, differential scanning fluorimetry, uHTS (AID 1259313)
# measurementContext: NR3A LBD differential scanning fluorimetry, at 25 µM, stronger effect = higher value, 0% = protein alone, 100% = glycine-bound protein
Among all 340,000 compounds or so, about 8,500 (2.5%) were called active. Many of the other results were omitted from the sample, so actives are more common in it than they were.
Respond with the bare value in %.

Example cases with answers are listed next.
compound	systemName	propertyLabel	readoutValue
CCOc1cc(NS(=O)(=O)c2ccc(OC)cc2)c(OCC)cc1NC(C)=O	Glutamate receptor ionotropic, NMDA 3A (GRIN3A) ligand-binding domain	Tm shift relative to glycine control	1.23
CNC(=O)c1[nH]cnc1C(=O)N[C@@H](CC(C)C)C(=O)OCc1ccccc1	Glutamate receptor ionotropic, NMDA 3A (GRIN3A) ligand-binding domain	Tm shift relative to glycine control	-3.33
CCOc1ccc(S(=O)(=O)Nc2nccs2)cc1	Glutamate receptor ionotropic, NMDA 3A (GRIN3A) ligand-binding domain	Tm shift relative to glycine control	-0.76
CC(C(=O)Nc1ccccc1-c1ccccc1)N1CCOCC1 (stereo unspecified)	Glutamate receptor ionotropic, NMDA 3A (GRIN3A) ligand-binding domain	Tm shift relative to glycine control	-18.3
CCc1ccnc(NS(=O)(=O)c2ccc3c(c2)OCCO3)c1	Glutamate receptor ionotropic, NMDA 3A (GRIN3A) ligand-binding domain	Tm shift relative to glycine control	-2.2

The record that follows has no Tm shift relative to glycine control shown yet.
Could you tell me which Tm shift relative to glycine control is on file for "CN(C)S(=O)(=O)c1ccc(NC(=O)COC(=O)c2n[nH]c3ccccc23)cc1" ?
-2.54

---

# Test system: Glutamate receptor ionotropic, NMDA 3A (GRIN3A) ligand-binding domain
# protocolDetails: binders of NR3A ligand-binding domain, primary screen, biophysical, differential scanning fluorimetry, uHTS (AID 1259313)
# measurementContext: NR3A LBD differential scanning fluorimetry, at 25 µM, 0% = protein alone, 100% = glycine-bound protein
Out of some 340,000 compounds screened, about 8,500 (2.5%) were called active.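 Rule for the calls: active = melting temperature shift of at least 10% of the positive control shift, at one fixed dose; inactive = the rest.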 The sample as a whole holds a higher share of actives than the screen did.
API: response.call in true (1) = active, false (0) = inactive

smilesCode	systemName	classification
COc1ccc(NC(=S)Nc2ccc(S(N)(=O)=O)cc2)c(C)c1	Glutamate receptor ionotropic, NMDA 3A (GRIN3A) ligand-binding domain	false (0)
CN(Cc1ccco1)S(=O)(=O)c1nnc(NC(=O)c2ccccc2)s1	Glutamate receptor ionotropic, NMDA 3A (GRIN3A) ligand-binding domain	false (0)
NS(=O)(=O)c1ccc(CCNC(=S)Nc2ccc(S(N)(=O)=O)cc2)cc1	Glutamate receptor ionotropic, NMDA 3A (GRIN3A) ligand-binding domain	false (0)
COc1ccc(CCC(=O)OCC(=O)Nc2ccc(C)c(S(=O)(=O)N(C)C)c2)cc1	Glutamate receptor ionotropic, NMDA 3A (GRIN3A) ligand-binding domain	false (0)
NS(=O)(=O)c1ccc(NC(=S)Nc2ccc(Br)c(Cl)c2)cc1	Glutamate receptor ionotropic, NMDA 3A (GRIN3A) ligand-binding domain	true (1)

Which outcome did this test record for the compound "Cc1cc(C)nc(-n2nc(C)cc2NC(=O)c2ccc(F)cc2F)n1" ?
false (0)
